Measured values drawn from ChEMBL document CHEMBL3407356 for this set.

The entries below come with measured pIC50 values attached.
TESTED ON: Prostaglandin G/H synthase 2 (Homo sapiens, UniProt P35354)
Sequence (P35354 whole entry): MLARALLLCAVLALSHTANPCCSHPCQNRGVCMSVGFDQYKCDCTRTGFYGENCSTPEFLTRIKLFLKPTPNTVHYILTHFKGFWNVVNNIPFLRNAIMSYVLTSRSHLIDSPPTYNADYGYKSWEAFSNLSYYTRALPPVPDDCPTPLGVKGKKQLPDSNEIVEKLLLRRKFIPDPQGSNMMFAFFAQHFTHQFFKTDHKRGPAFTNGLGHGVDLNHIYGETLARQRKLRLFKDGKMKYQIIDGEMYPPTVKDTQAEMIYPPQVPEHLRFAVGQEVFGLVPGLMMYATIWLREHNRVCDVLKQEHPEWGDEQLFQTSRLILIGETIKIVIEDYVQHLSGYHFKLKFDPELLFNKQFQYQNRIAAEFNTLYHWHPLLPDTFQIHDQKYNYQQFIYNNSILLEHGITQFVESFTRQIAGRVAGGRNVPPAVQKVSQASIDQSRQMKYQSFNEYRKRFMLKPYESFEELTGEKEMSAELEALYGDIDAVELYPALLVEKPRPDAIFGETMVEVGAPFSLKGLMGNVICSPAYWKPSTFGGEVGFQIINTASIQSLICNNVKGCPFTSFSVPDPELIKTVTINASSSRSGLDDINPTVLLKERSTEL
ASSAY COMMENT: Inhibition of human recombinant COX2 by ELISA
pIC50: −log10 of the molar value.
PROPERTY MEASURED: pIC50

>>> df
                                    compound  assay_value
 0  NS(=O)(=O)c1ccc(N2N=C3c4ccccc4CCC3C2c2ccccc2)cc1 (configuration not stated)         5.08
 1  NS(=O)(=O)c1ccc(N2N=C3c4ccccc4OCC3C2c2ccccc2F)cc1 (configuration not stated)         5.14
 2  NS(=O)(=O)c1ccc(N2N=C3c4ccccc4CCC3C2c2ccccc2Cl)cc1 (configuration not stated)         5.31
 3  NS(=O)(=O)c1ccc(N2N=C3c4ccccc4CCC3C2c2cccc(O)c2)cc1 (configuration not stated)         5.75
 4  NS(=O)(=O)c1ccc(N2N=C3c4ccccc4CCC3C2c2ccc(C(F)(F)F)cc2)cc1 (configuration not stated)         4.74
 5  NS(=O)(=O)c1ccc(N2N=C3c4ccccc4CCC3C2c2c(F)cccc2Cl)cc1 (configuration not stated)         5.44
 6  Cc1ccc(C2C3CCc4ccccc4C3=NN2c2ccc(S(N)(=O)=O)cc2)cc1 (configuration not stated)         5.67
 7  COc1ccccc1C1C2COc3ccccc3C2=NN1c1ccc(S(N)(=O)=O)cc1 (configuration not stated)         6.48
 8  NS(=O)(=O)c1ccc(N2N=C3c4ccccc4OCC3C2c2ccccc2Br)cc1 (configuration not stated)         5.90
 9  Cc1ccccc1C1C2CCc3ccccc3C2=NN1c1ccc(S(N)(=O)=O)cc1 (configuration not stated)         5.48
10  NS(=O)(=O)c1ccc(N2N=C3c4ccccc4OCC3C2c2ccccc2Cl)cc1 (configuration not stated)         5.64
11  NS(=O)(=O)c1ccc(N2N=C3c4ccccc4OCC3C2c2ccc(Br)cc2)cc1 (configuration not stated)         5.16
12  NS(=O)(=O)c1ccc(N2N=C3c4ccccc4CCC3C2c2ccccc2F)cc1 (configuration not stated)         4.92
13  COc1cccc(C2C3CCc4ccccc4C3=NN2c2ccc(S(N)(=O)=O)cc2)c1 (configuration not stated)         5.95
14  NS(=O)(=O)c1ccc(N2N=C3c4ccccc4OCC3C2c2ccc(Cl)cc2Cl)cc1 (configuration not stated)         5.56
15  NS(=O)(=O)c1ccc(N2N=C3c4ccccc4CCC3C2c2cccc(Br)c2)cc1 (configuration not stated)         5.46
16  NS(=O)(=O)c1ccc(N2N=C3c4ccccc4CCC3C2c2ccccc2Br)cc1 (configuration not stated)         4.90
17  NS(=O)(=O)c1ccc(N2N=C3c4ccccc4CCC3C2c2ccc(Br)cc2)cc1 (configuration not stated)         4.58
18  NS(=O)(=O)c1ccc(N2N=C3c4ccccc4OCC3C2c2c(F)cccc2Cl)cc1 (configuration not stated)         4.79
19  COc1ccccc1C1C2CCc3ccccc3C2=NN1c1ccc(S(N)(=O)=O)cc1 (configuration not stated)         5.58
20  Cc1ccccc1C1C2COc3ccccc3C2=NN1c1ccc(S(N)(=O)=O)cc1 (configuration not stated)         6.34
21  NS(=O)(=O)c1ccc(N2N=C3c4ccccc4CCC3C2c2cccc(F)c2)cc1 (configuration not stated)         5.32
